Target under test: thyroid hormone receptor β (TRβ) (Homo sapiens)
Sequence (P10828 whole entry): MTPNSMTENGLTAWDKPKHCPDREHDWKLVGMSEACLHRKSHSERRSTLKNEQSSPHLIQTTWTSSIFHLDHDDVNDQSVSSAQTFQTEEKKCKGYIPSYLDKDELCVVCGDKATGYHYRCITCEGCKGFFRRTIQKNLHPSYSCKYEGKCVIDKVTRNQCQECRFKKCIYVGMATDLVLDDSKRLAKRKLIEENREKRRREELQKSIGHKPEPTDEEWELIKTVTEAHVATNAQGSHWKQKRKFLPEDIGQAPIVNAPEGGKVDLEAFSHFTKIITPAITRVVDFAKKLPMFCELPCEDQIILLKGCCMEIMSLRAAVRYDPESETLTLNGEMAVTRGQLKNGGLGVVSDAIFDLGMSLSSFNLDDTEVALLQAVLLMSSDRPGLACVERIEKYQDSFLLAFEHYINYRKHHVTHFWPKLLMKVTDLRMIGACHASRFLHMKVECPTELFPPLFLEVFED
Assay metric: Ki

The measured Ki associated with Cc1cc(OCC(=O)O)cc(C)c1Cc1cc(C#Cc2ccc([N+](=O)[O-])cc2)c(O)c(C(C)C)c1 reads 1.31 nM
